hGLP1R cAMP Rel EC50 values for the binders below.
- Target Under Test: human GLP-1 receptor (GLP-1R) (human, UniProt P43220 24-463)
- Measurement Protocol: cell-based or functional assay
Reported Endpoint: hGLP1R cAMP Rel EC50 (nM)

binder="XXEGTFTSDYSIXLDXKAQXAFIXYLIAGGPSSGAPPPS (D-Tyr1; Aib2; αMeL13; Orn16; K17 conjugated to (2-[2-(2-Amino-ethoxy)-ethoxy]-acetyl)2-(γ-Glu)-CO-(CH2)16-CO2H; Aib20; D-Glu24; C-terminal amide) [Example 363]" quantity_unit=nM assay_value=0.208
binder="XXEGTFTSDYSIXLDXKAQXEFIEYLIAGGPSSG (D-Tyr1; Aib2; αMeL13; Orn16; K17 conjugated to (2-[2-(2-Amino-ethoxy)-ethoxy]-acetyl)2-(γ-Glu)-CO-(CH2)18-CO2H; Aib20; C-terminal amide) [Example 370]" quantity_unit=nM assay_value=0.186
binder="XXEGTFTSDYSIXLDXKAQXAFIEXLIAGGPSSGAPPPS (D-Tyr1; Aib2; αMeL13; Orn16; K17 conjugated to (2-[2-(2-Amino-ethoxy)-ethoxy]-acetyl)2-(γ-Glu)-CO-(CH2)16-CO2H; Aib20; αMeY25; C-terminal amide) [Example 377]" quantity_unit=nM assay_value=0.136
binder="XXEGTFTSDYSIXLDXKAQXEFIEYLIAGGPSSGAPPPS (D-Tyr1; Aib2; αMeL13; Orn16; K17 conjugated to (2-[2-(2-Amino-ethoxy)-ethoxy]-acetyl)2-(γ-Glu)-CO-(CH2)16-CO2H; Aib20; C-terminal amide) [Example 368]" quantity_unit=nM assay_value=0.108
binder="XXEGTFTSDYSIXLDKKAQXEFIEXLIEGGPSSGAPPPS (D-Tyr1; Aib2; αMeL13; K17 conjugated to (2-[2-(2-Amino-ethoxy)-ethoxy]-acetyl)2-(γ-Glu)-CO-(CH2)18-CO2H; Aib20; αMeY25; C-terminal amide) [Example 379]" quantity_unit=nM assay_value=0.238
binder="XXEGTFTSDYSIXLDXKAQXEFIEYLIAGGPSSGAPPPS (D-Tyr1; Aib2; αMeL13; Orn16; K17 conjugated to (2-[2-(2-Amino-ethoxy)-ethoxy]-acetyl)-(γ-Glu)-CO-(CH2)18-CO2H; Aib20; C-terminal amide) [Example 371]" quantity_unit=nM assay_value=0.132
binder="XXEGTFTSDYSIXLDXKAQXAFVEYLIEGGPSSGAPPPS (D-Tyr1; Aib2; αMeL13; Orn16; K17 conjugated to (2-[2-(2-Amino-ethoxy)-ethoxy]-acetyl)2-(γ-Glu)-CO-(CH2)18-CO2H; Aib20; C-terminal amide) [Example 360]" quantity_unit=nM assay_value=0.145
binder="XXEGTFTSDYSIXLDXKAQXAFVXYLIAGGPSSGAPPPS (D-Tyr1; Aib2; αMeL13; Orn16; K17 conjugated to (2-[2-(2-Amino-ethoxy)-ethoxy]-acetyl)2-(γ-Glu)-CO-(CH2)16-CO2H; Aib20; D-Glu24; C-terminal amide) [Example 364]" quantity_unit=nM assay_value=1
